Experiment: Rat in vivo pharmacokinetics study after oral administration of product A, B or C
Set-up: species or system Male Sprague-Dawley (SD) rats
Conditions: male, Sprague-Dawley, rat, plasma, po, 10 mL·kg^−1, rats, single oral dose 10 mL·kg^−1 of product C (FLJ and FF extracts 1:1), mean±SD
Readout type: Cmax (ng/mL)
Please reply with the bare figure in ng/mL and do not write the unit itself.

Below: 8 compounds and their reported Cmax.
- O=c1c(O[C@@H]2O[C@H](CO)[C@@H](O)[C@H](O)[C@H]2O)c(-c2ccc(O)cc2)oc2cc(O)cc(O)c12 [Astragalin]: 0.551
- O=C(/C=C/c1ccc(O)c(O)c1)O[C@@H]1C[C@@](O)(C(=O)O)C[C@@H](O)[C@@H]1O [Neochlorogenic acid]: 181
- C[C@@H]1O[C@@H](OC[C@H]2O[C@@H](Oc3c(-c4ccc(O)c(O)c4)oc4cc(O)cc(O)c4c3=O)[C@H](O)[C@@H](O)[C@@H]2O)[C@H](O)[C@H](O)[C@H]1O [Rutin]: 19.8
- O=C(/C=C/c1ccc(O)c(O)c1)O[C@H]1[C@H](O)C[C@](O)(C(=O)O)C[C@H]1O [Cryptochlorogenic acid]: 449
- O=C(O)/C=C/c1ccc(O)c(O)c1 [Caffeic acid]: 98.1
- O=C(C=Cc1ccc(O)c(O)c1)OC1CC(O)(C(=O)O)CC(O)C1OC(=O)C=Cc1ccc(O)c(O)c1 (stereo not shown) [3,4-dicaffeoylquinic acid]: 12.5
- O=C(/C=C/c1ccc(O)c(O)c1)O[C@@H]1C[C@](O)(C(=O)O)C[C@@H](OC(=O)/C=C/c2ccc(O)c(O)c2)[C@H]1O [3,5-dicaffeoylquinic acid]: 30.8
- O=c1cc(-c2ccc(O)c(O)c2)oc2cc(O)cc(O)c12 [Luteolin]: 19.5

Looking up C[C@@H]1O[C@@H](OC[C@H]2O[C@@H](OCCc3ccc(O)c(O)c3)[C@H](O)[C@@H](O)[C@@H]2OC(=O)/C=C/c2ccc(O)c(O)c2)[C@H](O)[C@H](O)[C@H]1O [Forsythoside A] , I found its Cmax recorded as 182

Looking up O=C(/C=C/c1ccc(O)c(O)c1)O[C@@H]1C[C@](O)(C(=O)O)C[C@@H](O)[C@H]1O [Chlorogenic acid] , I found its Cmax recorded as 661

Looking up O=c1c(O[C@@H]2O[C@H](CO)[C@@H](O)[C@H](O)[C@H]2O)c(-c2ccc(O)c(O)c2)oc2cc(O)cc(O)c12 [Isoquercitrin] , I found its Cmax recorded as 1

Looking up O=c1c(O[C@@H]2O[C@H](CO)[C@H](O)[C@H](O)[C@H]2O)c(-c2ccc(O)c(O)c2)oc2cc(O)cc(O)c12 [Hyperoside] , I found its Cmax recorded as 22.1

Looking up COc1cc(C[C@H]2C(=O)OC[C@@H]2Cc2ccc(OC)c(OC)c2)ccc1O [Arctigenin] , I found its Cmax recorded as 0.231

These entries and their values trace back to paper PMC4183595.
